Target: T1, water-soluble hFcRn (human, UniProt P55899 24-297; P61769 21-119, limits assumed)
T1 construct: also called shFcRn; human FcRn
T1 sequence (P55899 24-297 limits assumed, chain 1 of 2): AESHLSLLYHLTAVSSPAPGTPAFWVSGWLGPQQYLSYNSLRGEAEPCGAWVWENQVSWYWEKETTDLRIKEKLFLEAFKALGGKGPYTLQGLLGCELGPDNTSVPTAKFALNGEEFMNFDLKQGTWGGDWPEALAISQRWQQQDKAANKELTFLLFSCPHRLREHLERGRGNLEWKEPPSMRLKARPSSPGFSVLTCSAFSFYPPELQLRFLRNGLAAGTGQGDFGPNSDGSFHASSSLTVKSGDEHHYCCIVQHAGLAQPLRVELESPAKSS
T1 sequence (P61769 21-119 limits assumed, chain 2 of 2): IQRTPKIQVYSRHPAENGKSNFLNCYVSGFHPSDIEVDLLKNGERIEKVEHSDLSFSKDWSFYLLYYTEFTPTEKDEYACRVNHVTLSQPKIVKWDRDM
Assay: SPR (Proteon XPR36, GLC chip), shFcRn immobilised, antibody as analyte, pH 7.4, 1:1 Langmuir, mean of six runs
So I've got a bunch of binders here, and I need their kon values.
Express the result in M⁻¹ s⁻¹ but write the number alone.

IN: Quick check: kon of HL161A antibody (antibody, human IgG1, V domains shown) VH: EVQLLESGGGLVQPGGSLRLSCAASEFTFGSCVMTWVRQAPGKGLEWVSVISGSGGSTYYADSVKGRFTISRDNSKNTLYLQMNSLRAEDTAVYYCAKTPWWLRSPFFDYWGQGTLVTVSS VL: SYVLTQPPSVSVAPGQTARITCGGNNIGSTSVHWYQQKPGQAPVLVVHDDSDRPSGIPERFSGSNSGNTATLTISRVEAGDEADYYCQVRDSSSDHVIFGGGTKLTVLGQPKAAPSVTL ?
OUT: 1.32e+06

IN: Also check HL161D antibody (antibody, human IgG1, V domains shown, the VL entry runs a few residues into the constant region) VH: QLQLQESGPGLVKPSETLSLTCTVSGGSISSSSYYWGWIRQPPGKGLEWIGNIYYSGSTYYNPSLMSRVTISVDTSKNQFSLKLSSVTAADTAVYYCARQLSYNWNDRLFDYWGQGTLVTVSS VL: SYELTQPLSVSVALGQTARITCGGNNIGSKNVHWYQQKPGQAPVLVIYRDSNRPSGIPERFSGSNSGNTATLTISRAQAGDEADYYCQVWDSSTVVFGGGTKLTVLGQPKAAPSVTL
OUT: 699000

IN: Also check HL161C antibody (antibody, human IgG1, V domains shown) VH: QVQLVQSGAEVKKPGASVKVSCKASGYTFTGCYMHWVRQAPGQGLEWMGRINPNSGGTNYAQKFQGRVTMTRDTSISTAYMDLSRLRSDDTAVYYCARDYSGWSFDYWGQGTLVTVSS VL: DIQMTQSPSSLSASVGDRVTITCRASQGISNYLAWFQQKPGKAPKSLIYAASSLQSGVPSKFSGSGSGTDFTLTISSLQSEDFATYYCQQYDSYPPTFGGGTKVEIKRTVAAPSVFI
OUT: 1.36e+06

IN: Also check HL161B antibody (antibody, V domains shown, the VL entry runs a few residues into the constant region) VH: QLLLQESGPGLVKPSETLSLTCTVSGGSLSSSFSYWVWIRQPPGKGLEWIGTIYYSGNTYYNPSLKSRLTISVDTSKNHFSLNLSSVTAADTAVYYCARRAGILTGYLDSWGQGTLVTVSS VL: SYVLTQSPSVSVAPGQTARITCGGNNIGSKSVHWYQQKPGQAPVLVVYDDSDRPSGIPERFSASNSGNTATLTISRVEAGDEADYYCQVWDSSSDHVVFGGGTKLTVLGQPKAAPSVTL
OUT: 710000

The values you see were collected from patent US20240092913A1.
